system: DLD1; test: TCF/Wnt firefly luciferase reporter signal relative to plate median (fraction of plate median); higher = higher Wnt reporter signal; conditions: 10 µM; treatment time 24 h; reporter: 7TFP
Reported TCF/Wnt firefly luciferase reporter signal is given for each of the following molecules.

Here is how some molecules turned out for TCF/Wnt firefly luciferase reporter signal.
CN(C)C1CCN(C(=O)c2ccc(NC(=O)Nc3ccc(-c4nc(N5CCOCC5)nc(N5CCOCC5)n4)cc3)cc2)CC1 :: 0.947
N#C/C(=C\c1ccc(O)c(O)c1)C(=O)NCc1ccccc1 :: 0.656
COc1cc(Nc2ncc(F)c(Nc3ccc4c(n3)N(COP(=O)(O)O)C(=O)C(C)(C)O4)n2)cc(OC)c1OC [R788 (Fostamatinib)] :: 0.781
Cc1c(CN2CCN(C(=O)[C@H](C)O)CC2)sc2c(N3CCOCC3)nc(-c3cnc(N)nc3)nc12 :: 0.287
Cc1cc(Nc2cc(N3CCN(C)CC3)nc(/C=C/c3ccccc3)n2)n[nH]1 :: 1.06

// sample `C#Cc1cccc(Nc2ncnc3cc(OCCOC)c(OCCO)cc23)c1` , its TCF/Wnt firefly luciferase reporter signal was 0.821

Note to self: TCF/Wnt firefly luciferase reporter signal recorded for `CC(C)(C)Cn1c(N)nc2ccc(-c3[nH]c(C(C)(C)C)nc3-c3ccc(F)cc3)nc21` was 1.21

# TCF/Wnt firefly luciferase reporter signal of COc1cc2/c(=N/c3ccc(Br)cc3F)nc[nH]c2cc1OCC1CCN(C)CC1 [Vandetanib (Zactima)] = 0.963

For reference, reported TCF/Wnt firefly luciferase reporter signal for `Nc1cc(C(F)(F)F)c(-c2cc(N3CCOCC3)nc(N3CCOCC3)n2)cn1` stands at 0.383

TCF/Wnt firefly luciferase reporter signal in this record for `COc1ccc(S(=O)(=O)N(C(C)=O)c2ccccc2/C=C/c2cc[n+]([O-])cc2)cc1` : 0.725

Query `CNC(=O)Nc1ccc(-c2nc(N3CC4CCC(C3)O4)c3cnn(C4CCC5(CC4)OCCO5)c3n2)cc1` yields TCF/Wnt firefly luciferase reporter signal of 0.356

Cited source: the supplement of paper PMC6522484
